experimental.system: GTPase KRas (Homo sapiens, UniProt P01116, G12D)
Sequence (P01116 whole entry G12D): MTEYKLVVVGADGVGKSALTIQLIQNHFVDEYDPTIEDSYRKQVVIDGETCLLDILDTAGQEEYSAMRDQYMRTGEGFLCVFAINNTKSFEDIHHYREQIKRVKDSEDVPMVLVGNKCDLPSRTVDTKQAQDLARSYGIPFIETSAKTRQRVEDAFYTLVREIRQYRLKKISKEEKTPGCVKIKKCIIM
protocol.details: Inhibition of recombinant his-tagged KRAS G12D mutant (unknown origin) expressed in Escherichia coli BL21(DE3) assessed as inhibition of GDP-GTP exchange rate in presence of recombinant SOS1/GMPPNP incubated for 1 hr by BODIPY fluorescence assay
metric.name: IC50 (nM)
// return numeric value only (unit: nM, not printed)

The compound listed as Oc1cc(N2CCc3c(nc(OCC4(CN5CCOCC5)CC4)nc3N3CC4CCC(C3)N4)C2)c2c(Br)cccc2c1 has a reported IC50 of 1.2

---

Tested on: A-427
protocol.details: Antiproliferative activity against human A427 cells expressing KRAS G12D mutant assessed as inhibition of cell growth measured after 3 days by CellTiter-Glo assay
Assay type: functional, cell-based
recorded.conditions: A-427, 72 h
metric.name: pIC50
In plain terms, pIC50 is the concentration in mol/L turned into minus its base-10 logarithm.

Worked cases, pIC50 given:
[
  {
    "molecule": "Cc1cccc2cc(O)cc(N3CCc4c(nc(OCC5(CN6CCOCC6)CC5)nc4N4CC5CCC(C4)N5)C3)c12",
    "pIC50": 6.26
  },
  {
    "molecule": "CN(C)CC1(COc2nc3c(c(N4CC5CCC(C4)N5)n2)CCN(c2cc(O)cc4cccc(Br)c24)C3)CC1(F)F (stereo not drawn)",
    "pIC50": 6.27
  },
  {
    "molecule": "Oc1cc(N2CCc3c(nc(OCC4(CN5CC[C@@H](F)C5)CC4)nc3N3CC4CCC(C3)N4)C2)c2c(I)cccc2c1",
    "pIC50": 6.33
  },
  {
    "molecule": "CN1C[C@H](F)C[C@H]1COc1nc2c(c(N3CC4CCC(C3)N4)n1)CCN(c1cc(O)cc3cccc(Br)c13)C2",
    "pIC50": 6.19
  },
  {
    "molecule": "Oc1cc(N2CCc3c(nc(OCC4(CN5CCOCC5)CC4)nc3N3CC4CCC(C3)N4)C2)c2c(Br)cccc2c1",
    "pIC50": 6.23
  }
]

According to the records, this molecule CN(C)CC1(COc2nc3c(c(N4CC5CCC(C4)N5)n2)CCN(c2cc(O)cc4cccc(I)c24)C3)CC1 displays pIC50 of 6.24

The recorded pIC50 for Oc1cc(N2CCc3c(nc(OCC4(CN5CC[C@@H](F)C5)CC4)nc3N3CC4CCC(C3)N4)C2)c2c(Br)cccc2c1 is 6.27

Documented pIC50 of Oc1cc(N2CCc3c(nc(OCC4(CN5CCOCC5)CC4)nc3N3CC4CCC(C3)N4)C2)c2c(I)cccc2c1 : 6.46
